Test system: SN12C renal
Assay: NCI tumour cell line growth inhibition, 48 h; in the data active = GI50 below about 0.43 µM; inactive = the rest
Lab note: assign the record to one of class 1 (active), class 0 (inactive)

Cc1nn(-c2ccccc2)c(C)c1/C=N/N1CCN(Cc2ccccc2)CC1 | class 0

Note: attention shifts to another entry.
Problem: Please indicate how the test categorized O=C(c1ccncc1)N1CCN(C2=NS(=O)(=O)c3ccccc3N2c2ccccc2)CC1 .
Solution: class 0

----------
System: SW-620 colon
Experiment: NCI tumour cell line growth inhibition, 48 h
property_name: GI50

Reference set (10 entries):
O=C(Nc1cccc(-n2cc(-c3ccncc3)c(-c3ccc(O)c(Cl)c3)n2)c1)c1ccc(N2CCOCC2)c(C(F)(F)F)c1 | 4.05 µM
COc1ccc2c(c1)c(-c1nc(-c3cn(C)c4ncccc34)cs1)cn2CCCCN1CCOCC1 | 0.745 µM
O=C1CCCC(=O)C1C(=O)c1ccc(C(F)(F)F)cc1[N+](=O)[O-] | > 100 µM
C[CH2][Sn]([Cl])([CH2]C)[CH2]C | 0.57 µM
CCCN(CCC)c1ccc(/C=N/NC(=O)c2cccnc2)cc1 | 18.1 µM
CS(=O)(=O)c1ccc(-c2[nH]c3ccc(F)cc3c2/C=N/NC(N)=S)cc1 | 0.575 µM
COc1cc([N+](=O)[O-])c(OC)cc1-c1nc2n(c1/C(N)=N/C(=N)N)CCS2 | > 100 µM
COc1cc(/C=N/Nc2ncnc3c2cnn3Cc2ccccc2)ccc1O | > 25 µM
CC(=O)Nc1ccc(S(=O)(=O)c2ccc(NC(C)=O)cc2)cc1 | > 100 µM
CCCC(=O)Nc1ncnc2c1ncn2C1OC2COP(=O)(O)OC2C1OC(=O)CCC (configuration not stated) | > 1000 µM

Problem: Identify GI50 associated with the compound O=C(O)CP(=O)(c1ccccc1)c1ccccc1.O=C(O)CP(=O)(c1ccccc1)c1ccccc1.[Cd]
Solution: 19.6 µM

Problem: Identify GI50 associated with the compound CCc1cccc(CC)c1NC(=O)c1ccn2c1CCc1cnc(Nc3ccc(N4CCN(C)CC4)cc3OC)nc1-2
Solution: 1.11 µM
